# Species on record: Rattus norvegicus
# measurement.notes: Open TG-GATES - Regimen: Daily Repeat
# Type: toxicity, organism-based, Sprague-Dawley
# Parameters: regimen Daily Repeat, gender Male, age 6 weeks
# condition.context: in vivo, po, 0 mg/kg, […], tissue Plasma, route gavage, dose level Control, time 7 day
assay.readout: A/G
Answer using only a numeral; do not append any unit.

Sample records with A/G:
compound	A/G
Cc1nnc2n1-c1ccc(Cl)cc1C(c1ccccc1Cl)=NC2 [TRIAZOLAM]	0.9
CCCc1cc(=O)[nH]c(=S)[nH]1 [PROPYLTHIOURACIL]	1.8
NC1=NC(=O)C(c2ccccc2)O1 (configuration not stated) [PEMOLINE]	0.9
O=C(OC[C@H]1O[C@@H](OC(=O)c2cc(O)c(O)c(OC(=O)c3cc(O)c(O)c(O)c3)c2)[C@H](OC(=O)c2cc(O)c(O)c(OC(=O)c3cc(O)c(O)c(O)c3)c2)[C@@H](OC(=O)c2cc(O)c(O)c(OC(=O)c3cc(O)c(O)c(O)c3)c2)[C@@H]1OC(=O)c1cc(O)c(O)c(OC(=O)c2cc(O)c(O)c(O)c2)c1)c1cc(O)c(O)c(OC(=O)c2cc(O)c(O)c(O)c2)c1 [TANNIC ACID]	1.7
CN1C(=O)CCS(=O)(=O)C1c1ccc(Cl)cc1 (configuration not stated) [CHLORMEZANONE]	0.9

Query :: Name the recorded A/G for CNC(=C[N+](=O)[O-])NCCSCc1ccc(CN(C)C)o1 [RANITIDINE] .
Result :: 1.5

Query :: Name the recorded A/G for Brc1ccccc1 [BROMOBENZENE] .
Result :: 0.8

----------
# Species: Rattus norvegicus
# measurement.notes: Open TG-GATES - Regimen: Single
# Type: toxicity, organism-based, Sprague-Dawley
# Set-up: regimen Single, gender Male, age 6 weeks
# condition.context: in vivo, po, 100 mg/kg, 9 h, tissue Blood, route gavage, dose level Low
assay.readout: Eos

Sample records with Eos:
molecule	result
CN/C(=N/CCSCc1nc[nH]c1C)NC#N [CIMETIDINE]	1%
CNC(=C[N+](=O)[O-])NCCSCc1ccc(CN(C)C)o1 [RANITIDINE]	1%
O=C(OC[C@H]1O[C@@H](OC(=O)c2cc(O)c(O)c(OC(=O)c3cc(O)c(O)c(O)c3)c2)[C@H](OC(=O)c2cc(O)c(O)c(OC(=O)c3cc(O)c(O)c(O)c3)c2)[C@@H](OC(=O)c2cc(O)c(O)c(OC(=O)c3cc(O)c(O)c(O)c3)c2)[C@@H]1OC(=O)c1cc(O)c(O)c(OC(=O)c2cc(O)c(O)c(O)c2)c1)c1cc(O)c(O)c(OC(=O)c2cc(O)c(O)c(O)c2)c1 [TANNIC ACID]	1%

Query :: Name the recorded Eos for COC(=O)C1=C(C)NC(C)=C(C(=O)OC)C1c1ccccc1[N+](=O)[O-] [NIFEDIPINE] .
Result :: 0.6%

Query :: Name the recorded Eos for Cc1nnc2n1-c1ccc(Cl)cc1C(c1ccccc1Cl)=NC2 [TRIAZOLAM] .
Result :: 1.6%

----------
# Organism: Rattus norvegicus
# measurement.notes: Open TG-GATES - Regimen: Daily Repeat
# Format: toxicity, organism-based, Sprague-Dawley
# Parameters: regimen Daily Repeat, gender Male, age 6 weeks
# condition.context: in vivo, po, 0 mg/kg, […], tissue Plasma, route gavage, dose level Control, time 14 day
assay.readout: ALP
Mention the unit after the number when you answer.

compound	assay.readout	result
COC(=O)C1=C(C)NC(C)=C(C(=O)OC)C1c1ccccc1[N+](=O)[O-] [NIFEDIPINE]	ALP	1854.8 IU/L
Cc1nnc2n1-c1ccc(Cl)cc1C(c1ccccc1Cl)=NC2 [TRIAZOLAM]	ALP	1514.4 IU/L
CN/C(=N/CCSCc1nc[nH]c1C)NC#N [CIMETIDINE]	ALP	861.4 IU/L
CN1C(=O)CCS(=O)(=O)C1c1ccc(Cl)cc1 (stereo not drawn) [CHLORMEZANONE]	ALP	1484.4 IU/L

Query :: Name the recorded ALP for Brc1ccccc1 [BROMOBENZENE] .
Result :: 1619.6 IU/L

Query :: Name the recorded ALP for NC1=NC(=O)C(c2ccccc2)O1 (stereo not drawn) [PEMOLINE] .
Result :: 1289.6 IU/L

Query :: Name the recorded ALP for CCOc1ccc(NC(C)=O)cc1 [PHENACETIN] .
Result :: 1542.8 IU/L

Query :: Name the recorded ALP for CN(C)CCC(c1ccc(Cl)cc1)c1ccccn1 (stereo not drawn) [CHLORPHENIRAMINE] .
Result :: 1632.2 IU/L

Query :: Name the recorded ALP for Nc1c2c(nc3ccccc13)CCCC2 [TACRINE] .
Result :: 1565.4 IU/L

Query :: Name the recorded ALP for CNC(=C[N+](=O)[O-])NCCSCc1ccc(CN(C)C)o1 [RANITIDINE] .
Result :: 885.8 IU/L

// data source = ChEMBL document CHEMBL3885861
